Parameter: Ki. Scope: all listed entries.
- SYSTEM NAME: hCA II (Homo sapiens, UniProt P00918)
- Construct: made in house
- ASSAY INFO: stopped-flow CO2 hydrase assay, hCA II inhibition
- Type: biochemical
- EXPERIMENTAL PARAMETERS: 6 h incubation of enzyme and inhibitor; mean from 3 different assays, errors 5-10%; read-out: KI (nM) CA II

CC1=CS(=O)(=O)Oc2cc(OCc3ccc([N+](=O)[O-])cc3)ccc21: > 100000 nM

Value of measured Ki for the entry `COc1ccc2c(c1)OS(=O)(=O)C(C(=O)Nc1ccccc1)=C2` : > 100000 nM

Lookup result for `COc1ccc(NC(=O)C2=Cc3ccc(OC)cc3OS2(=O)=O)cc1` ; measured Ki: > 100000 nM

----------
Entries annotated with measured melting point

CCOC(=O)C1=Cc2ccccc2OS1(=O)=O: 111 to 113 °C
O=S1(=O)Oc2cc(OCc3ccccc3)ccc2-c2ccccc21: 232 to 235 °C
CC1=CS(=O)(=O)Oc2cc(OCc3ccc([N+](=O)[O-])cc3)ccc21: 247 to 249 °C
COc1cccc(NC(=O)C2=Cc3ccccc3OS2(=O)=O)c1: 219 to 221 °C
COc1ccc2c(c1)OS(=O)(=O)c1ccccc1-2: 180 to 183 °C

Given item `O=S1(=O)C=Cc2ccc(O)cc2O1` , the value recorded as its melting point is 157 to 159 °C

Summary for this molecule, `O=C(Nc1ccc(Br)cc1)C1=Cc2ccccc2OS1(=O)=O` : melting point is 249 to 252 °C

----------
Measured melting point, listed per entry for reference.

Worked examples, 4 molecules total:
CC1=CS(=O)(=O)Oc2cc(OCc3cccc([N+](=O)[O-])c3)ccc21: 239 to 241 °C
O=S1(=O)Oc2cc(OCc3cccc(F)c3)ccc2-c2ccccc21: 249 to 252 °C
O=[N+]([O-])c1ccc(COc2ccc3c(c2)OS(=O)(=O)c2ccccc2-3)cc1: 264 to 266 °C
O=S1(=O)C=Cc2ccc(OCc3ccc(F)cc3)cc2O1: 197 to 199 °C

Lab book: melting point of `O=S1(=O)Oc2cc(OCc3ccc(F)cc3)ccc2-c2ccccc21` noted as 268 to 269 °C

For this molecule ( `CC1=CS(=O)(=O)Oc2cc(OCc3ccc(F)cc3)ccc21` ), measured melting point is 195 to 198 °C

Origin of the recorded values: paper PMC9267968
